- Method notes: self-splicing fitness, log relative to wild type (ln ratio); higher = more splicing; Tetrahymena group I intron in knt gene, E. coli kanamycin selection, DiMSum; sequences stand for … in CUCUCU…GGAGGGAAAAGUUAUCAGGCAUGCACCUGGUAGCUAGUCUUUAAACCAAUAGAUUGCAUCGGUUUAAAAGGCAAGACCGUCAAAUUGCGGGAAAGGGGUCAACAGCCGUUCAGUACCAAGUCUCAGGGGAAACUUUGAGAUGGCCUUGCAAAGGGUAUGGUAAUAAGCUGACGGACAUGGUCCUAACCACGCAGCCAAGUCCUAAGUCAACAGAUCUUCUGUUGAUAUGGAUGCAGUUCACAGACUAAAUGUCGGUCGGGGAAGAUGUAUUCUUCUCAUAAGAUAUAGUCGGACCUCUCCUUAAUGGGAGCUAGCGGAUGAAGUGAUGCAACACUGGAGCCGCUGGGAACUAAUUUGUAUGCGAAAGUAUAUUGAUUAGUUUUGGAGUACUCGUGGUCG;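 further: selection with 25 µg/mL kanamycin versus none on LB agar overnight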
- Condition summary: 37 °C
Test readout: self-splicing fitness (ln)

Sequence code	Test readout	Test value
GCAUAGCAAUAUUACGAUCG	self-splicing fitness (ln)	-0.34
CCCAAGCAAUAUUACGACUA	self-splicing fitness (ln)	-2.31
UGAGAGCAAUAUUACGUCUG	self-splicing fitness (ln)	-1.88

Attribution: the supplement of paper PMC7877785
